# Test system: MCF7 breast
# MEASUREMENT_NOTES: NCI-60 one-dose screen, 48 h
# CONDITION_DESCRIPTION: 10 µM unless noted
The panel holds about 83,000 compounds, 20% with a hit somewhere; the sample as a whole holds those more often. The source made the active and inactive calls. How the source made its calls: active means growth percent below 10; inactive means the rest.
Outcomes: true (active), false (inactive)

| COMPOUND | SYSTEM_UNDER_TEST | DISCRETE_LABEL |
| --- | --- | --- |
| O=S(=O)(NCCNc1nccc(-c2c(-c3cccc(F)c3)nc3sccn23)n1)c1ccc(Cl)cc1 | MCF7 breast | false |
| CC(=O)c1ccc(NS(=O)(=O)c2cccc(C(=O)Nc3ccc(Br)cc3)c2)cc1 | MCF7 breast | false |
| CC(=O)Nc1cccc(-c2ccc3c(c2)NC(=O)/C3=C\c2ccc[nH]2)c1 | MCF7 breast | false |
| O=C1Nc2cc(-c3cccc(O)c3)ccc2/C1=C/c1ccc[nH]1 | MCF7 breast | false |
| COc1ccc(C(=O)c2nc3ccccc3n2CC(=O)c2ccc(Cl)cc2)cc1 | MCF7 breast | false |
| O=C(Nc1cccc(C(=O)N2CCc3ccc(Cl)cc32)c1)c1ccco1 | MCF7 breast | false |
| Nc1ccccc1NC(=O)c1ccc(-n2nc(-c3ccccc3)c3ccccc32)cc1 | MCF7 breast | false |
| c1ccc(Cn2cnc3ccc(-c4nc(-c5ccc6c(c5)ncn6C5CCCCC5)cn5ccnc45)cc32)cc1 | MCF7 breast | true |
| Brc1ccc2[nH]cc(-c3cncn3CCc3ccccc3)c2c1 | MCF7 breast | false |
| Cc1nc(N)nc(N[C@@H](C)c2nc3cccc(NCc4ccc(C(=O)NO)cc4)c3c(=O)n2-c2ccccc2)n1 | MCF7 breast | false |
| CC1(C)CC(O)CCCCCCOc2c(CN)cccc2NC(=O)c2nc(cnc2N)-c2ccc(cc2)S1(=O)=O (centres undefined) | MCF7 breast | true |
| O=[N+]([O-])CC(c1ccccc1F)c1c[nH]c2ccccc12 (centres undefined) | MCF7 breast | false |
| CCOC(=O)[C@@H](C)C[C@H](Cc1ccccc1)NC(=O)c1csc([C@@H](C[C@H](C(C)C)N(C)C(=O)[C@@H](NC(=O)[C@H]2C[C@H](O[Si](C)(C)C(C)(C)C)CCN2C)C(C)C)OC(C)=O)n1 | MCF7 breast | false |
| CCN(CC)c1ccc(/C=N/NC(=O)CSc2nc3ccccc3c(=O)n2Cc2ccc(S(N)(=O)=O)cc2)c(O)c1 | MCF7 breast | false |
| O=C(/C=C/c1ccc[nH]1)c1ccc(-n2ccc(C(F)(F)F)n2)c(F)c1 | MCF7 breast | false |
| COc1cccc(-c2ccc3c(c2)NC(=O)/C3=C\c2ccc[nH]2)c1 | MCF7 breast | false |
| CCCCN1C=CCN(CCCC)C1 | MCF7 breast | false |
| COC(=O)C(CC=O)C(=O)C(=O)Nc1cccc(C(F)(F)F)c1 (centres undefined) | MCF7 breast | false |
| COc1cc2c(c(OC)c1OC)CCC(c1cccc(NC(=O)c3cccc(Br)c3)c1)O2 (centres undefined) | MCF7 breast | false |

###

# System: HOP-92 NSCLC
# MEASUREMENT_NOTES: NCI-60 one-dose screen, 48 h
# CONDITION_DESCRIPTION: 10 µM unless noted
Compounds without any hit were thinned out: in the full panel of roughly 83,000, 20% have a hit. Calls of active or inactive are those of the source. The calls were made as follows: active = growth percent below 10; inactive = the rest.
Outcomes: active, inactive

| COMPOUND | DISCRETE_LABEL |
| --- | --- |
| CC/C(=C\c1ccc(OC)cc1)C(=O)c1ccc(OC)cc1 | inactive |
| O=C(Nc1cccc(C(=O)N2CCc3ccc(Cl)cc32)c1)c1ccco1 | inactive |
| CC(C)(C)[Si](C)(C)OC1[C@@H](O[Si](C)(C)C(C)(C)C)[C@@H](CNC(=O)NC(=O)CCl)O[C@H]1n1cnc2c(NC(=O)Nc3ccccc3)ncnc21 (some centres undefined) | active |
| N#Cc1c(-c2ccccc2)nc2c(c(-c3ccccc3)nn2-c2ccccc2)c1-c1ccc(O)cc1 | inactive |
| Cc1cc(Cl)nc(N(CCNc2ccnc3cc(Cl)ccc23)Cc2ccccn2)n1 | inactive |
| Cn1ccnc1C(=O)/C=C/c1ccc(CC(=O)Nc2ccc(F)cc2)cc1 | inactive |
| COC(=O)/C=C1\S/C(=N\NC(=O)c2cc3ccc2/C=C\c2ccc(cc2)/C=C\3)N(c2ccccc2)C1=O | inactive |
| Cc1ccc(NC(=O)Cc2ccc(/C=C/C(=O)c3ncc[nH]3)cc2)cc1 | inactive |
| COc1cc2nc(-c3ccc(Cl)cc3)cc(OCCCN3CCC(O)CC3)c2cc1OC | inactive |

###

# Tested on: LOX IMVI melanoma
# MEASUREMENT_NOTES: NCI-60 one-dose screen, 48 h
# CONDITION_DESCRIPTION: 10 µM unless noted
Compounds without any hit were thinned out: in the full panel of roughly 83,000, 20% have a hit. Active and inactive are the calls of the source. The calls were made as follows: active = growth percent below 10; inactive = the rest.
Outcomes: active, inactive

| COMPOUND | DISCRETE_LABEL |
| --- | --- |
| CCOC(=O)[C@@H]1CCCN(S(=O)(=O)c2ccc(S(=O)(=O)N(CC)CC)c(F)c2)C1 | inactive |
| Cc1nc(N)nc(N[C@@H](C)c2nc3cccc(NCc4ccc(C(=O)NO)cc4)c3c(=O)n2-c2ccccc2)n1 | inactive |
| C=C1C(=O)O[C@H]2[C@H]1CC/C(COC(=O)NCCc1c[nH]c3ccc(OC)cc13)=C\CC[C@@]1(C)O[C@@H]21 | active |
| COc1cc2c3c(c4c5ccccc5[nH]c4c2c(OC)c1OC)C(=O)N(CCN1CCOCC1)C3=O | inactive |
| CCN(CC)CCOc1ccc(NC(=O)C(C(C)C)N2C(=O)/C(=C/c3ccc(Br)cc3)SC2=S)cc1 (stereo not drawn) | inactive |
| NNC(=O)c1ccc(-n2nc(-c3ccccc3)c3ccccc32)cc1 | inactive |
| C=C(C)[C@@H]1CC[C@]2(CN)CC[C@]3(C)[C@H](CC[C@@H]4[C@@]5(C)CCCNC(C)(C)[C@@H]5CC[C@]43C)[C@@H]12 | active |
| CN1C(=O)NC(c2ccc3c(c2)OCO3)C=C1c1ccccc1 (stereo not drawn) | inactive |

###

# Tested on: RPMI-8226 leukemia
# MEASUREMENT_NOTES: NCI-60 one-dose screen, 48 h
# CONDITION_DESCRIPTION: 10 µM unless noted
About 83,000 compounds went through this panel and 20% of them were active in at least one assay; those are over-represented in the sample as a whole. Active and inactive are the calls of the source. How the source made its calls: active means growth percent below 10; inactive means the rest.
Outcomes: t = active, f = inactive

| SMILES_STR | SYSTEM_UNDER_TEST | DISCRETE_LABEL |
| --- | --- | --- |
| CCOC(=O)c1cc(C(=O)c2ccc(Br)cc2)n2ccc(/C=C/c3cc[n+](CC(=O)c4ccc(OC)cc4)cc3)cc12 | RPMI-8226 leukemia | f |
| CCN(CC)c1ccc(/C=N/NC(=O)CSc2nc3ccccc3c(=O)n2CCc2ccc(S(N)(=O)=O)cc2)c(O)c1 | RPMI-8226 leukemia | t |
| CNCCOc1nc2c3cnccc3cc(-c3cc(OC)c(OC)c(OC)c3)c2c2ccncc12 | RPMI-8226 leukemia | t |
| Cc1ccc(CNc2c3ccccc3nc3cc(NC(=O)CCN4CCCC4)ccc23)cc1 | RPMI-8226 leukemia | t |
| COc1cccc(-c2cc(C(=O)Nc3ccc(/C=C/c4ccc(OC5CCN(C)CC5)cc4)cc3)ccc2OC)c1 | RPMI-8226 leukemia | t |
| CC(C)(C)c1cc(C=O)cc(C(C)(C)C)c1O | RPMI-8226 leukemia | f |
| COc1cc2c(=O)n(CCN)c3c4cc5c(cc4ccc3c2cc1OC)OCO5 | RPMI-8226 leukemia | t |
| CN(C)c1ccc(Nc2c3ccccc3nc3cc(NC(=O)CCN4CCCC4)ccc23)cc1 | RPMI-8226 leukemia | t |
| CC(=O)Nc1cccc(-c2ccc3c(c2)NC(=O)/C3=C\c2ccc[nH]2)c1 | RPMI-8226 leukemia | f |

###

# Test system: NCI-H522 lung
# MEASUREMENT_NOTES: NCI-60 one-dose screen, 48 h (100 = growth as untreated, 0 = no growth, -100 = all killed)
# CONDITION_DESCRIPTION: 10 µM unless noted
About 83,000 compounds went through this panel and 20% of them were active in at least one assay; those are over-represented in the sample as a whole.
Please mark met if the recorded growth is equal to or greater than -30%, and not met if it falls below.

| SMILES_STR | SYSTEM_UNDER_TEST | DISCRETE_LABEL |
| --- | --- | --- |
| CCc1c(Cl)nc(N)nc1Nc1ccc(C)c(C)c1 | NCI-H522 lung | met |
| COc1ccc(C(=O)Cn2c(C(=O)c3ccccc3)nc3ccccc32)cc1 | NCI-H522 lung | met |
| O=C1Nc2ccc(F)cc2/C1=C\c1c(-c2ccccc2)nc2ccccn12 | NCI-H522 lung | met |
| COc1cc2nc(-c3ccc(Cl)cc3)cc(OCCCN3CCCCC3)c2cc1OC | NCI-H522 lung | met |
| CN1CCN(c2ccc(NC3=C(Cl)C(=O)c4ncccc4C3=O)cc2C(F)(F)F)CC1 | NCI-H522 lung | not met |
